target: human mGluR5a receptor (Homo sapiens)
Construct: cDNA subcloned into pcDNA3.1(-)
assay-method-text: Cell-based functional Ca2+ mobilization assay (FDSS), potentiation of glutamate EC20 response
experimental-parameters: HEK cells transfected with human mGluR5 (H10H or H12H); in presence of EC20 glutamate; read-out: EC50
reported-endpoint: pEC50
Reminder that pEC50 means the negative base-10 logarithm of the concentration expressed in mol/L.

### Prompt // output pEC50; input COc1nccnc1N1C(=O)c2cc(COc3ccccc3)nn2C[C@H]1C [Example 149] ; system human mGluR5a receptor (Homo sapiens)
### Response 6.10

### Prompt // output pEC50; input COCCOc1cccc(N2CCn3nc(COc4ccccc4)cc3C2=O)n1 [Example 85] ; system human mGluR5a receptor (Homo sapiens)
### Response 6.36

### Prompt // output pEC50; input O=C1c2cc(COc3ccccc3)nn2CCN1c1ccc(F)c(F)c1 [Example 7] ; system human mGluR5a receptor (Homo sapiens)
### Response 7.01

### Prompt // output pEC50; input O=C1c2cc(COc3ccncc3)nn2CCN1c1ccc(F)cc1 [Example 160] ; system human mGluR5a receptor (Homo sapiens)
### Response 6.20

* * *

target: human mGluR5a receptor (Homo sapiens, UniProt P41594)
Construct: cDNA subcloned into pcDNA3.1(-)
Sequence (P41594 21-1180 isoform P41594-2 limits assumed): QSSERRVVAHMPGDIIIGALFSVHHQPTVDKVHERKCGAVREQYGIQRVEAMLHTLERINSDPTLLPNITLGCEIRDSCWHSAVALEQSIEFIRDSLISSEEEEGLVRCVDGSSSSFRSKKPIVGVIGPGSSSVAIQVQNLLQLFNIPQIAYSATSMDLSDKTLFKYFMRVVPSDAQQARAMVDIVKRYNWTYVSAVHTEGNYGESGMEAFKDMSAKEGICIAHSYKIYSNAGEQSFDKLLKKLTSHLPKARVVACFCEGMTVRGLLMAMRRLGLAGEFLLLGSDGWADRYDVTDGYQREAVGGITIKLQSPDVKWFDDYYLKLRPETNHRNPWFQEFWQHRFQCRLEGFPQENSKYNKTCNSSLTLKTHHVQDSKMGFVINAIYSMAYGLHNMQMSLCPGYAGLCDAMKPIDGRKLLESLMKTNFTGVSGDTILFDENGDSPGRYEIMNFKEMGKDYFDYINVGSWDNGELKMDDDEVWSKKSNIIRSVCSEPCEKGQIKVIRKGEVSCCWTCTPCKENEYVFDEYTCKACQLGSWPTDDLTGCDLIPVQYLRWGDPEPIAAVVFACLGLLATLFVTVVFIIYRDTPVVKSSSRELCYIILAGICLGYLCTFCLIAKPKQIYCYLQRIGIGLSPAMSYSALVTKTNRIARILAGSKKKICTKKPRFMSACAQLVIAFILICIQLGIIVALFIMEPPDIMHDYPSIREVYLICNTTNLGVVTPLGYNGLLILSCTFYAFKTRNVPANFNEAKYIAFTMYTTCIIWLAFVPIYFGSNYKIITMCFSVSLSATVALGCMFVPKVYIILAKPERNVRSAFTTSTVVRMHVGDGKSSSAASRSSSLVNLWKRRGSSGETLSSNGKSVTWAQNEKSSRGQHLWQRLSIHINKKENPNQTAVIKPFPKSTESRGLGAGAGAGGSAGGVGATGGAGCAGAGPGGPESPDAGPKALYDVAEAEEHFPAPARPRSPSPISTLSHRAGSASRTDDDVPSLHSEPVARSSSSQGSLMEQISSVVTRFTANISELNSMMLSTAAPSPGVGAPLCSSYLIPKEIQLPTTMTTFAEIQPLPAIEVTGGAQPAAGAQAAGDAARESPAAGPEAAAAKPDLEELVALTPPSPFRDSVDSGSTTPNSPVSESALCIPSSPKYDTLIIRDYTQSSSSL
assay-method-text: Cell-based functional Ca2+ mobilization assay (FDSS), potentiation of glutamate EC20 response
experimental-parameters: maximum % effect in concentration-response curve, as percent of response to maximally effective glutamate
Hi! Just check whether Emax (%) is below 60%. Below gives yes (1), equal or above gives no (0).

### Prompt Is it true that Emax (%) reported for O=C1c2cc(COc3ccccc3)nn2CCN1c1ncccn1 is less than 60%?
### Response yes (1)

### Prompt Is it true that Emax (%) reported for COc1cnc(N2CCn3nc(COc4ccccc4)cc3C2=O)cn1 is less than 60%?
### Response no (0)

### Prompt Is it true that Emax (%) reported for O=C1NCCn2nc(COc3ccccc3)cc21 is less than 60%?
### Response no (0)

### Prompt Is it true that Emax (%) reported for O=C1c2cc(COc3ccncc3)nn2CCN1c1ccc(F)cn1 is less than 60%?
### Response no (0)

### Prompt Is it true that Emax (%) reported for COc1nccc(N2CCn3nc(COc4ccc(F)cc4)cc3C2=O)n1 is less than 60%?
### Response no (0)

### Prompt Is it true that Emax (%) reported for Cc1ccc(N2CCn3nc(COc4ccccc4)cc3C2=O)cc1 is less than 60%?
### Response no (0)

### Prompt Is it true that Emax (%) reported for CC(C)c1cccc(N2CCn3nc(COc4ccccn4)cc3C2=O)n1 is less than 60%?
### Response no (0)

### Prompt Is it true that Emax (%) reported for Cc1cc(N(C)C)nc(N2CCn3nc(COc4ccccc4)cc3C2=O)c1 is less than 60%?
### Response yes (1)

### Prompt Is it true that Emax (%) reported for COc1ccccc1N1CCn2nc(COc3ccccn3)cc2C1=O is less than 60%?
### Response yes (1)

* * *

target: human mGluR5a receptor (Homo sapiens, UniProt P41594)
Construct: cDNA subcloned into pcDNA3.1(-)
assay-method-text: Cell-based functional Ca2+ mobilization assay (FDSS), potentiation of glutamate EC20 response
experimental-parameters: HEK cells transfected with human mGluR5 (H10H or H12H); in presence of EC20 glutamate; read-out: EC50
Hi! Just check whether EC50 is below 400 nM. Below gives Condition met, equal or above gives Condition not met.

### Prompt Is it true that EC50 reported for Cc1ccccc1N1CCn2nc(COc3ccc(F)cc3)cc2C1=O [Example 223] is less than 400 nM?
### Response Condition met

### Prompt Is it true that EC50 reported for Cc1nccc(OCc2cc3n(n2)CCN(c2ccc(F)cc2)C3=O)n1 [Example 182] is less than 400 nM?
### Response Condition not met

### Prompt Is it true that EC50 reported for Cc1cc(F)cnc1N1CCn2nc(COc3ccccc3)cc2C1=O [Example 86] is less than 400 nM?
### Response Condition met

### Prompt Is it true that EC50 reported for CC1Cn2nc(COc3ccccc3)cc2C(=O)N1c1ccc(F)cc1 (racemic) [Example 18] is less than 400 nM?
### Response Condition met

### Prompt Is it true that EC50 reported for N#Cc1ccnc(OCc2cc3n(n2)CCN(c2ccc(F)cc2)C3=O)c1 [Example 193] is less than 400 nM?
### Response Condition not met

### Prompt Is it true that EC50 reported for Cc1cncc(OCc2cc3n(n2)CCN(c2ccc(F)cc2)C3=O)n1 [Example 200] is less than 400 nM?
### Response Condition not met

### Prompt Is it true that EC50 reported for Cc1c(COc2ccccc2)nn2c1C(=O)N(c1ccc(F)cc1)CC2 [Example 262] is less than 400 nM?
### Response Condition not met

### Prompt Is it true that EC50 reported for Cn1cncc1N1CCn2nc(COc3ccccc3)cc2C1=O [Example 352] is less than 400 nM?
### Response Condition not met

### Prompt Is it true that EC50 reported for COc1cc(F)cc(N2CCn3nc(COc4ccccc4)cc3C2=O)c1 [Example 299] is less than 400 nM?
### Response Condition met

* * *

target: human mGluR5a receptor (Homo sapiens)
Construct: cDNA subcloned into pcDNA3.1(-)
assay-method-text: Cell-based functional Ca2+ mobilization assay (FDSS), potentiation of glutamate EC20 response
experimental-parameters: maximum % effect in concentration-response curve, as percent of response to maximally effective glutamate
Hi! Just check whether Emax (%) is below 70%. Below gives yes (1), equal or above gives no (0).

### Prompt Is it true that Emax (%) reported for Cc1ccnc(N2CCn3nc(COc4ccccc4)cc3C2=O)n1 is less than 70%?
### Response yes (1)

### Prompt Is it true that Emax (%) reported for CC1CNC(=O)c2cc(COc3ccccc3)nn21 (racemic) is less than 70%?
### Response yes (1)

### Prompt Is it true that Emax (%) reported for CC1CN(CC2CC2)C(=O)c2cc(COc3ccccc3)nn21 (single isomer, unassigned) [Example 128] is less than 70%?
### Response yes (1)

### Prompt Is it true that Emax (%) reported for COc1ncc(C)cc1N1CCn2nc(COc3ccccc3)cc2C1=O is less than 70%?
### Response no (0)

* * *

target: human mGluR5a receptor (Homo sapiens, UniProt P41594)
Construct: cDNA subcloned into pcDNA3.1(-)
assay-method-text: Cell-based functional Ca2+ mobilization assay (FDSS), potentiation of glutamate EC20 response
experimental-parameters: maximum % effect in concentration-response curve, as percent of response to maximally effective glutamate
Records here are stratified by Emax (%); strata: lower band: < 60%; central band: ≥ 60% and < 70%; upper band: ≥ 70%

### Prompt State the band of O=C1c2c(Cl)c(COc3ccccc3)nn2CCN1CC1CC1
### Response lower band

### Prompt State the band of CC(Oc1ccccc1)c1cc2n(n1)CCN(c1ccc(F)cc1)C2=O (racemic)
### Response central band

### Prompt State the band of CC1Cn2nc(COc3ccccc3)cc2C(=O)N1c1ccc(F)cn1 (stereo not drawn)
### Response lower band

### Prompt State the band of O=C1c2cc(COc3ccccc3)nn2CCN1c1ccc2nccc(Cl)c2c1
### Response upper band

### Prompt State the band of CC1Cn2nc(COc3ccccn3)cc2C(=O)N1c1ccc(F)cc1 (stereo not drawn)
### Response upper band

### Prompt State the band of O=C1c2cc(COc3ccccc3)nn2CCN1c1cccnc1
### Response central band

* * *

target: human mGluR5a receptor (Homo sapiens, UniProt P41594)
Construct: cDNA subcloned into pcDNA3.1(-)
assay-method-text: Cell-based functional Ca2+ mobilization assay (FDSS), potentiation of glutamate EC20 response
experimental-parameters: maximum % effect in concentration-response curve, as percent of response to maximally effective glutamate
Hi! Just check whether Emax is below 60%. Below gives YES, equal or above gives NO.

### Prompt Is it true that Emax reported for N#Cc1ccnc(OCc2cc3n(n2)CCN(c2ccc(F)cc2)C3=O)c1 [Example 193] is less than 60%?
### Response YES

### Prompt Is it true that Emax reported for Cc1ccccc1N1C(=O)c2cc(COc3ccccc3)nn2C[C@H]1C [Example 154] is less than 60%?
### Response NO

### Prompt Is it true that Emax reported for Cc1cc(OCc2cc3n(n2)CCN(c2ccc(F)cc2)C3=O)ccn1 [Example 174] is less than 60%?
### Response YES

### Prompt Is it true that Emax reported for Cc1ccc(N2CCn3nc(COc4ccccc4)cc3C2=O)s1 [Example 319] is less than 60%?
### Response NO

### Prompt Is it true that Emax reported for O=C1c2cc(COc3ccccc3)nn2CCN1c1ccc2nccnc2n1 [Example 373] is less than 60%?
### Response YES

### Prompt Is it true that Emax reported for Cc1ccccc1OCc1cc2n(n1)CCN(c1ccc(F)cc1)C2=O [Example 191] is less than 60%?
### Response YES

### Prompt Is it true that Emax reported for COc1cccc(N2CCn3nc(COc4ccc(F)cc4)cc3C2=O)c1 [Example 220] is less than 60%?
### Response NO

### Prompt Is it true that Emax reported for COc1cnnc(N2CCn3nc(COc4ccccc4)cc3C2=O)c1 [Example 125] is less than 60%?
### Response YES

### Prompt Is it true that Emax reported for COc1cc(F)cc(N2CCn3nc(COc4ccccc4)cc3C2=O)c1 [Example 299] is less than 60%?
### Response NO

### Prompt Is it true that Emax reported for Cc1nc(N2CC(C)n3nc(COc4ccc(F)cc4)cc3C2=O)ccc1F (racemic) [Example 236] is less than 60%?
### Response NO

### Prompt Is it true that Emax reported for COc1ccc(N2CCn3nc(COc4ccccc4)cc3C2=O)c(C)n1 [Example 114] is less than 60%?
### Response NO

### Prompt Is it true that Emax reported for O=C1c2cc(COc3ccc(O)cc3)nn2CCN1c1ccc(F)cn1 [Example 355] is less than 60%?
### Response YES

### Prompt Is it true that Emax reported for Cc1cccc(N2CCn3nc(COc4ccccn4)cc3C2=O)n1 [Example 206] is less than 60%?
### Response NO

### Prompt Is it true that Emax reported for Cc1cccc(N2CCn3nc(COc4ccccc4)cc3C2=O)n1 [Example 10] is less than 60%?
### Response NO

### Prompt Is it true that Emax reported for O=C1c2cc(COc3ccccc3)nn2CCN1c1cccc(=O)[nH]1 [Example 359] is less than 60%?
### Response NO

### Prompt Is it true that Emax reported for Cc1ccc(OCc2cc3n(n2)CCN(c2ccc(F)cc2)C3=O)cc1 [Example 192] is less than 60%?
### Response YES

### Prompt Is it true that Emax reported for O=C1c2cc(COc3ccccc3)nn2CCN1c1cnc2cccnn12 [Example 370] is less than 60%?
### Response NO

### Prompt Is it true that Emax reported for O=C1c2cc(COc3ccccc3)nn2CCN1c1ncc(F)cn1 [Example 126] is less than 60%?
### Response NO

### Prompt Is it true that Emax reported for COc1cc(C)nc(N2CCn3nc(COc4ccccc4)cc3C2=O)n1 [Example 99] is less than 60%?
### Response NO
